System under test: Histone deacetylase 1 (Homo sapiens)
Sequence (Q13547 whole entry): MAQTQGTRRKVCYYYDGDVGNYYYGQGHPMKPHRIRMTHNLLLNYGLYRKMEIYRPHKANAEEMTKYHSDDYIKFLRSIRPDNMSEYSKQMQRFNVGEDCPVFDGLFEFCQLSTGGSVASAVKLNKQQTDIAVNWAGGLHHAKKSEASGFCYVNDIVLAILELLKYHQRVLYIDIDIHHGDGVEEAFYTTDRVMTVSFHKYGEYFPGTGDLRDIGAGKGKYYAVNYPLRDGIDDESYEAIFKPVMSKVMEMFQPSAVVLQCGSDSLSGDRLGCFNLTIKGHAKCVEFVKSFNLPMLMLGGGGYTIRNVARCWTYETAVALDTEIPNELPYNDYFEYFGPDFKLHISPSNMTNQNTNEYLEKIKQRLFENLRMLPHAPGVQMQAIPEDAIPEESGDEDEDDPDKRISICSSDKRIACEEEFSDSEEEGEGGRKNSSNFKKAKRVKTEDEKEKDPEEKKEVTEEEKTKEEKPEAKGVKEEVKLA
Test description: Inhibition of HDAC1 (unknown origin)
Parameter measured: IC50 (nM)

CCN(CC)Cc1ccc(Cn2c(=O)c(OCc3ccc(C(=O)NO)cc3)c(-c3ccccc3)c3ccccc32)cc1
322
CCN(CC)Cc1ccc(Cn2c(=O)c(OCc3ccc(C(=O)NO)cc3)c(-c3cccnc3)c3ccccc32)cc1
319

* * *

System under test: Histone deacetylase 3 (Homo sapiens)
Test description: Inhibition of human recombinant HDAC3 incubated for 45 mins by microplate reader assay
pIC50: −log10 of the molar value.
Parameter measured: pIC50

Task: Quick one: pIC50 for O=C(NO)c1ccc(CC(=O)N(CCO)c2ccccc2)cc1 ?
Result: < 5.00

* * *

System under test: Histone deacetylase 3 (Homo sapiens, UniProt O15379)
Sequence (O15379 whole entry): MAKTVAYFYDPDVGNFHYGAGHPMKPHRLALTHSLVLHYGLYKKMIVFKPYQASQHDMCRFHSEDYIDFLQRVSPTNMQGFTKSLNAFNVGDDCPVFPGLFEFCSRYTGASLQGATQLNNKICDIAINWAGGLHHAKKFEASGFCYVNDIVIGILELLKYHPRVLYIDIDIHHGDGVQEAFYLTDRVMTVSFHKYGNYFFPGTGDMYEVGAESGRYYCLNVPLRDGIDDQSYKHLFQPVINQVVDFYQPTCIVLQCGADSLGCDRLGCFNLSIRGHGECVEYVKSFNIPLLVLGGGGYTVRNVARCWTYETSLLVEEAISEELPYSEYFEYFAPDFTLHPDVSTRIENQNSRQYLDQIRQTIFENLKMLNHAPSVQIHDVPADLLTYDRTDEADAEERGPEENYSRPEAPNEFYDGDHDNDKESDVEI
Test description: Inhibition of full length human recombinant HDAC3 incubated for 30 to 60 mins by HDAC-Glo I/II assay
Parameter measured: IC50 (nM)
Give the quantity in nM, number only.

Task: Quick one: IC50 for COc1ccc2c3c(cccc13)C(=O)N(Cc1ccc(C(=O)NO)cc1)C2=O ?
Result: 64

* * *

System under test: Histone deacetylase 1 (Homo sapiens)
Test description: Inhibition of full length human recombinant HDAC1 incubated for 30 to 60 mins by HDAC-Glo I/II assay
Parameter measured: IC50 (nM)
Give the quantity in nM, number only.

Task: Quick one: IC50 for COc1ccc2c3c(cccc13)C(=O)N(Cc1ccc(C(=O)NO)cc1)C2=O ?
Result: 108

* * *

System under test: Protein deacetylase HDAC6 (Homo sapiens, UniProt Q9UBN7)
Sequence (Q9UBN7 whole entry): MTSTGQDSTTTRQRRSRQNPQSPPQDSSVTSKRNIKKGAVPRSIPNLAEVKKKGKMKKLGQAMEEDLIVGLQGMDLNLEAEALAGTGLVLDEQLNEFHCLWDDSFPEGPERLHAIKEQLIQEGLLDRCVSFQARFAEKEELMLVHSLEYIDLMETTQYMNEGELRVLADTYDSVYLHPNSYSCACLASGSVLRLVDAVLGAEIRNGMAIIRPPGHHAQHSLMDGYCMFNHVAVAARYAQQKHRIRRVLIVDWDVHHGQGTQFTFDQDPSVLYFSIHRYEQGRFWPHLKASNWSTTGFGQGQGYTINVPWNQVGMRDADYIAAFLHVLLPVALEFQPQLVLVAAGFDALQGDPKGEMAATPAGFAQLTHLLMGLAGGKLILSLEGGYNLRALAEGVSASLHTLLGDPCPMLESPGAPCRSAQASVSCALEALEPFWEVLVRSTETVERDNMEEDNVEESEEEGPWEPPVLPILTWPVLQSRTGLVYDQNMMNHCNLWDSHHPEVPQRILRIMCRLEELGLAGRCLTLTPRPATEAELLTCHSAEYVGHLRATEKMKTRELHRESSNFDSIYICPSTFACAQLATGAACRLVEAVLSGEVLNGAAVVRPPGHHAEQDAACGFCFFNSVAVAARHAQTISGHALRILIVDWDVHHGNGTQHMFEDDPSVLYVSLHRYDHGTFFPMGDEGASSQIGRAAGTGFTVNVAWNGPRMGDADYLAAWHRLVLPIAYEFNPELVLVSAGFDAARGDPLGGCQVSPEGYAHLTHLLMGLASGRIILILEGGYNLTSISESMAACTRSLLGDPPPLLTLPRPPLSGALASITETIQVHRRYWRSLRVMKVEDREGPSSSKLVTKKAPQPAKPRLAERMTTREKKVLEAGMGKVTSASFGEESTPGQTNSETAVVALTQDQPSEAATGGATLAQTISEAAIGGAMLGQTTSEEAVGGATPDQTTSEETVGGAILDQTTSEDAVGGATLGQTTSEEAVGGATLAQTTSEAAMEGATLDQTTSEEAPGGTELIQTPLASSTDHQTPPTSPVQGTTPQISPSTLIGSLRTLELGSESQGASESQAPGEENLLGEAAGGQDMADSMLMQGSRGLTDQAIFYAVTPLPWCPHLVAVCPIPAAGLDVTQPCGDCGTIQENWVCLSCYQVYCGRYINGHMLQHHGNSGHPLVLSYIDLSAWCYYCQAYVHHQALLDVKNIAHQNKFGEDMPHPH
Test description: Inhibition of human recombinant HDAC6 using ZMAL -Z-(Ac)Lys-AMC fluorogenic substrate incubated for 30 mins by microplate reader assay
Parameter measured: pIC50
Remember the convention: pIC50 equals -log10 of concentration in molar.

Task: Quick one: pIC50 for CCCC1=C(Nc2ccc(C(=O)NO)cc2)C2N=CC=CC2=N1 (stereo unspecified) ?
Result: 7.24
